Assay: Toxicity in albino mouse assessed as mortality at 60 mg/kg, iv
Type: organism-based
Design: dose 60 mg/kg, route intravenous
Conditions: in vivo
readout.type: mortality (%)
One number for each entry, in %.

Look up mortality: CCCCCCCCCCCCCC(=O)NC(CCCN)C(=O)NC(CCCN)C(=O)NC(CCCN)C(N)=O (stereo unspecified)
25

----------
Assay: Toxicity in albino mouse assessed as mortality at 150 mg/kg, iv
Assay type: organism-based
Set-up: dose 150 mg/kg, route intravenous
Settings: in vivo
readout.type: mortality
Record the result as number plus unit.

Look up mortality: CCCCCCCCCCCCCC(=O)NC(CCCN)C(=O)NC(CCCN)C(=O)NC(CCCN)C(N)=O (stereo unspecified)
85%
